SYSTEM_TESTED: Serine/threonine-protein kinase pim-1 (Homo sapiens, UniProt P11309)
Sequence (P11309 whole entry): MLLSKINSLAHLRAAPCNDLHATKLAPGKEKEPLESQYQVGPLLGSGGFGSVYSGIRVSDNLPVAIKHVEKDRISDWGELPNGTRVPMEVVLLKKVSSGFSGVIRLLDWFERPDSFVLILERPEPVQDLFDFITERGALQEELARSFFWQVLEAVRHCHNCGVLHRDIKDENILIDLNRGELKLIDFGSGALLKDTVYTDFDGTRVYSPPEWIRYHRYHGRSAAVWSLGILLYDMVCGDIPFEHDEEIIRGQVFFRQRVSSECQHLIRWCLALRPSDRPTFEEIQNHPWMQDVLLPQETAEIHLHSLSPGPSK
pIC50: −log10 of the molar value.
PROPERTY_MEASURED: pIC50

molecule=CSc1ncc(-c2cc(-c3ccc(Br)cc3)[nH]c(=N)c2C#N)n1Cc1ccccc1 endpoint_value="> 6.82"

###

SYSTEM_TESTED: Serine/threonine-protein kinase pim-1 (Homo sapiens)
ASSAY_OVERVIEW: Inhibition of N-terminal GST-tagged recombinant human full length Pim-1 expressed in Escherichia coli cells
PROPERTY_MEASURED: Ki

molecule=O=C1NC(=O)/C(=C/c2ccnc(N3CCC(CNCc4ccc5ccccc5n4)CC3)n2)S1 property_measured=Ki endpoint_value="7.7 nM"

Value source: ChEMBL document CHEMBL4346696
